Tested on: Calu-3
Experiment: drug sensitivity score (DSS) for viability; higher = more toxic; extreme values may be limits of the assay
Settings: 72 h
ASSAY_READOUT: drug sensitivity score
Respond with the number and no other words.

Worked cases, answers included:
COc1cc(C)nc(-n2nc(C)cc2OC)n1 [epirizole]	0
Cn1cc(-c2[nH]c3cc(NC(=O)[C@H](N)C4CCCCC4)cc4c3c2C=NNC4=O)cn1	6.5
Cc1ccc(S(=O)(=O)OCC(=O)Nc2ccc(C(=O)O)c(O)c2)cc1	0

The value of drug sensitivity score measured for the molecule `C=C(CC)C(=O)c1ccc(OCC(=O)O)c(Cl)c1Cl` turned out to be 0

// drug sensitivity score value for `CC(=O)N1CCC[C@H]1C(=O)N[C@@H](Cc1cnc[nH]1)C(=O)N[C@@H](CO)C(=O)N[C@@H](CS)C(=O)N[C@@H](CC(N)=O)C(N)=O` : 0

What the record says about `C[C@@H](O)[C@H]1C(=O)N2C(C(=O)O)=C([C@H]3CCCO3)S[C@H]12` : drug sensitivity score is 0

// recorded drug sensitivity score for `CCN(CC)CCOC(=O)c1cc(Cl)c(N)cc1OC` : 0

Query `C[C@@H]1COCCN1c1cc(C2(S(C)(=O)=O)CC2)nc(-c2cccc3[nH]ccc23)n1` yields drug sensitivity score of 6

###

System: Vero E6
Assay: cell viability relative to DMSO; higher = less toxic
Details: 72 h; 1000 nM
Quick reference for cell viability among some compounds
Express your answer in %, writing the number without its unit.

For orientation, consider the following solved cases.
CCOC(=O)c1ccc(O)cc1	104
c1ccc2sc(N3CCN(Cc4ccc5c(c4)OCO5)CC3)nc2c1 [2-[1-(4-piperonyl)piperazinyl]benzothiazole]	95.8
CC(C)(C)c1cc(C=C(C#N)C#N)cc(C(C)(C)C)c1O	97.2
C[C@H](NC(=O)C(C)(C)Oc1ccc(C(F)(F)F)cn1)[C@@H](Cc1ccc(Cl)cc1)c1cccc(C#N)c1	97.8
Clc1ccc(N/N=C(\c2ccccc2)c2ccccn2)nc1	53.7

# ---- query compound ----
Result for `O=C1c2ccccc2C(=O)C1c1ccc(Br)cc1` , tested on Vero E6, cell viability: 104

###

Tested on: Caco-2
Experiment: cell viability relative to DMSO; higher = less toxic
Settings: 72 h; 1000 nM
Below, each entry is listed with its recorded cell viability.
# do not omit the unit; it follows the number

// worked examples, cell viability included
CC(=O)N1CCC[C@H]1C(=O)N[C@@H](Cc1cnc[nH]1)C(=O)N[C@@H](CO)C(=O)N[C@@H](CS)C(=O)N[C@@H](CC(N)=O)C(N)=O	103%
O=C(CCCCCCC(=O)Nc1cccnc1)NO [pyroxamide]	91.6%
C=CC(C)(C)c1cc(/C=C/C(=O)c2ccc(O)cc2)c(OC)cc1O	88%
CO[C@@H]1[C@H](O)[C@@H](CO)O[C@H]1n1cnc2c(NC3CCCCC3)ncnc21	103%

Turning to the following molecule.
cell viability reported for this molecule `Cc1ccc(S(=O)(=O)N2CCC[C@H]2c2ccc(F)cc2)cc1` : 97.3%

###

# cell viability values compiled below
Test system: Vero E6
Assay: cell viability relative to DMSO; higher = less toxic
Details: 72 h; 10000 nM
The reply should contain only the number, in %.

C[C@H](NC(=O)C(C)(C)Oc1ccc(C(F)(F)F)cn1)[C@@H](Cc1ccc(Cl)cc1)c1cccc(C#N)c1	85.5

The molecule O=C(/C=C\n1cnc(-c2cc(C(F)(F)F)cc(C(F)(F)F)c2)n1)NNc1cnccn1 [selinexor] showed cell viability equal to 24.3

Looking up NC(=O)c1ccccc1O [salicylamide] , I found its cell viability recorded as 93

Entry under test: `Cc1cccc(-c2[nH]c(C(C)(C)C)nc2-c2ccc3nccnc3c2)n1` . Its cell viability was 81.6

Entry `C=CC(C)(C)c1cc(/C=C/C(=O)c2ccc(O)cc2)c(OC)cc1O` , cell viability reported as 102

Given item `N#CCC1(n2cc(-c3ncnc4[nH]ccc34)cn2)CN(C2CCN(C(=O)c3ccnc(C(F)(F)F)c3F)CC2)C1` , the value recorded as its cell viability is 98.5

###

System: U2OS
Test: cell viability relative to DMSO; higher = less toxic
Settings: 72 h; 1 nM
ASSAY_READOUT: cell viability (%)
The reply should be a number in %, with the unit left off.

CC(=O)Nc1ccc(S(=O)(=O)Nc2ccc([N+](=O)[O-])cc2)cc1	97.6

Observed cell viability, U2OS, `O=C(O)[C@H](Cc1c[nH]c2ccccc12)N1C(=O)c2ccccc2C1=O` : 105

Measured cell viability (U2OS), entry COc1ccc2[nH]c([S+]([O-])Cc3ncc(C)c(OC)c3C)nc2c1 (stereo not given) : 96.6

Form field, cell viability with U2OS, item `C[C@@H](O)[C@H]1C(=O)N2C(C(=O)O)=C([C@H]3CCCO3)S[C@H]12` : 101

Measured cell viability for this entry O=C(CCCCCCC(=O)Nc1cccnc1)NO [pyroxamide] on U2OS: 102

// returns cell viability for `COc1ccc(C(C)(C)C)cc1CN[C@H]1C2CCN(CC2)[C@H]1C(c1ccccc1)c1ccccc1` with U2OS; value = 99.5

Short answer on U2OS for `COc1cccc([C@H](O)C2CCN(CCc3ccc(F)cc3)CC2)c1OC` , cell viability: 103

Entry `CCN(CC)CCOC(=O)c1cc(Cl)c(N)cc1OC` : cell viability on U2OS = 98.9

U2OS assay, compound `O=C1COc2nccc(-c3ccccc3F)c2CN1Cc1cc(C(F)(F)F)cc(C(F)(F)F)c1` , recorded cell viability = 97.7

# `Nc1ccc(-c2nc3ccc(-c4nc5ccc(N)cc5[nH]4)cc3[nH]2)cc1` with U2OS: cell viability is 105

###

System: HepG2
Experiment: drug sensitivity score (DSS) for viability; higher = more toxic; extreme values may be limits of the assay
Settings: 72 h
Listing: drug sensitivity score of selected molecules
I only need the number, thanks.

CCN1CCN(Cc2ccc(-c3cc4c(N[C@H](C)c5ccccc5)ncnc4[nH]3)cc2)CC1 [AEE788]	0.2

Per the records, this molecule ( C#Cc1cccc(Nc2ncnc3cc(OCCOC)c(OCCOC)cc23)c1 [erlotinib] ) has drug sensitivity score equal to 2.4

The value of drug sensitivity score measured for the molecule O=C(CCCCCCC(=O)Nc1cccnc1)NO [pyroxamide] turned out to be 8.7

###

Listing of recorded cell viability by entry.
System: Vero E6
Assay: cell viability relative to DMSO; higher = less toxic
Conditions: 72 h; 10 nM
# value in %; strip the unit string

CC(=O)OCC1=C(C(=O)O)N2C(=O)[C@@H](N)[C@H]2SC1	100
Cc1ncc(Cl)cc1NCc1ccc(C(=O)N[C@@H](CC2CCCC2)C(=O)NC2CC2)s1	94.7

Read the next record carefully.
Notebook: `CNc1ncnc2c1ncn2[C@@H]1O[C@H](CO)[C@@H](O)[C@H]1O` , cell viability read as 103

###

Listed below: drug sensitivity score values for each entry.
System: HepG2
Assay: drug sensitivity score (DSS) for viability; higher = more toxic; extreme values may be limits of the assay
Conditions: 72 h
Reply with the value as a number alone.

# example entries with known answers
Cc1[nH]nc(C(F)(F)F)c1Cc1sc2c(c1C(=O)N1C[C@](C)(O)CO1)c(=O)n(C)c(=O)n2C(C)C	0
CN1CC[C@@]2(C)c3cc(O)ccc3N(C)[C@@H]12 [eseroline-(-)]	0.2

Kindly review the next compound as well.
drug sensitivity score recorded for this compound, `Cc1cc(I)ccc1Nc1c(C(=O)NOCC2CC2)cc(F)c(F)c1F` , is 9.7

###

Recorded cell viability values for a group of compounds are listed next.
Test system: U2OS
Test: cell viability relative to DMSO; higher = less toxic
Conditions: 72 h; 10000 nM
Provide only the numeric value, understood in %.

Reference set (4 entries):
Cc1cc(OCCN2CCOCC2)nn1-c1ccc2ccccc2c1	102
COc1ccccc1N1CCN(CCN2C(=O)c3ccccc3C(C)(C)C2=O)CC1	95.9
C[C@@H]1O[C@@H](OC[C@H]2O[C@@H](Oc3c(-c4ccc(O)c(O)c4)oc4cc(O)cc(O)c4c3=O)[C@H](O)[C@@H](O)[C@@H]2O)[C@H](O)[C@H](O)[C@H]1O	102
Cc1nn(C)c2c1C(c1ccc(C(F)(F)F)cc1)C(C#N)=C(N)O2 (configuration not stated)	102

I looked up O=C(O)COCCN1CCN(C(c2ccccc2)c2ccc(Cl)cc2)CC1 (configuration not stated) and its cell viability for U2OS was 102

The value of cell viability recorded for CN(C)CC(c1ccc(O)cc1)C1(O)CCCCC1 (configuration not stated) when tested on U2OS reads 94.2

Log: U2OS, compound `CC(C)[C@H]1[C@@H]2CC[C@@H](C2)[C@@H]1N` , cell viability = 92.1

###

Catalogue of cell viability values
Test system: Caco-2
Assay: cell viability relative to DMSO; higher = less toxic
Settings: 72 h; 10000 nM
Report the figure in % without appending any unit label.

Recorded results for 2 compounds are shown here.
CCCCC(=O)OCC(=O)[C@]1(O)Cc2c(O)c3c(c(O)c2[C@@H](O[C@H]2C[C@H](NC(=O)C(F)(F)F)[C@H](O)[C@H](C)O2)C1)C(=O)c1c(OC)cccc1C3=O	23.3
CC(C)(C)NCC(O)c1ccc(O)c(CO)c1 (stereo not drawn)	102

Record for `CCCCCCCCN=c1ccn(CCCCCCCCCCn2ccc(=NCCCCCCCC)cc2)cc1` under target or system Caco-2: cell viability reported as 1
